test: potency against coupled GDH and TPI enzymes – biochemical, fluorescence, IC50, artefact control for M. tuberculosis FBA inhibitor project, dose response (AID 652145); settings: GDH-TPI coupled enzyme assay, artifact counterscreen
The other results are listed elsewhere or left out. Active and inactive are the calls of the source. No rule for the calls is given here.
Please state which outcome applies, choosing from label 1 (active), label 0 (inactive)

Recorded call for N#Cc1c(N2CCCCC2)nc(N)c2c(N)nc(SCC(=O)O)cc12 ?
label 0

Query: recorded result category for CCCNC(=O)c1c(N)n(-c2ccc(S(N)(=O)=O)cc2)c2nc3ccccc3nc12 in this test
label 1

What is the recorded call for this compound in the test? CCOc1c2ccc(C(=O)NC3CCCc4ccccc43)cc2nn1CC (stereo unspecified)
label 1

Short answer needed: outcome of this test for COc1ccc2oc(=O)c(C(=O)NCc3ccccn3)cc2c1 ?
label 1

What classification did Cn1cccc1-c1nc2ccccc2n1C end up with in this test?
label 1

Tell me the assay call for O=C1C(=O)N(c2ccccc2)C(c2ccccc2)C1c1ccccc1 (stereo unspecified) please.
label 0

All figures here come from PubChem BioAssay AID652145.
